Test system: HIV-1LAI.04
Assay: Anti-HIV-1 activity in MT-4 cell cultures
Type: cell-based
Conditions: MT-4 cells
Measured property: SI, selective index or ratio of CC50 (MT-4)/EC50

Please review the following examples before continuing.
COC(=O)[C@H](C)NP(=O)(OCCOCn1cnc2c(=O)[nH]c(N)nc21)Oc1cccc2ccccc12 (stereo partly shown)    > 32
CCOC(=O)[C@H](C)NP(=O)(OCCOCn1cnc2c(=O)[nH]c(N)nc21)Oc1cccc2ccccc12 (stereo partly shown)    > 88
C[C@H](NP(=O)(OCCOCn1cnc2c(=O)[nH]c(N)nc21)Oc1ccccc1)C(=O)OCc1ccccc1 (stereo partly shown)    > 26

Now look at this one.
Q) Would you mind telling me what SI, selective index or ratio of CC50 (MT-4)/EC50 value was observed for CC(C)OC(=O)[C@H](C)NP(=O)(OCCOCn1cnc2c(=O)[nH]c(N)nc21)Oc1cccc2ccccc12 (stereo partly shown) ?
A) > 28
